The measured values listed here are drawn from paper PMC3817407.

Collected fold repression values appear next to each entry.
systemName: T1, ECF11_3726
T1 chain: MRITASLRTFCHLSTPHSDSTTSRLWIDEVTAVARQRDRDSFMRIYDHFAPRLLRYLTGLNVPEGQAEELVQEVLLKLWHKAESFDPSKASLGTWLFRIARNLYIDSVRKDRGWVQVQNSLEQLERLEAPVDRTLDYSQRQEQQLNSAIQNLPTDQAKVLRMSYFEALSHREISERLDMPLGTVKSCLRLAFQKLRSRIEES
endpointLabel: fold repression

binder	result
AS37_2513 (protein) MSSAPATKEEVDFALKVRRALDERAASLPDATTDRLAAARRAALARKKPDAAIVLVPALAGSAGTLELRPPGEPRKSLARRLARAWPLALLLAGLIGIAYWEDMQRTAELADIDAAMLSDNLPLTAYLDHGFNAYLSHTH	11.6
AS16_973 (protein) MKTDDLIALLAAGEGPVPRHAVGRRMAVAALGGLTAALLLTITLYGVRSDITEVAQTPLFWGKVAFPTSLALIGLWLTSRLARPGGKGAAGWKMLGLPLLLVWCGAAVSIAGAPVDARADLLFGRTWRTCALNIALLSVPAFVTVFWALKGLAPTRLRLAGAAGGLLAGSSATVAYCLHCPEMGVPFWGVWYVLGMLVPTVLGAWWGPRMLRW	1.29
